# System: Huh-7 cell line
# Test Protocol: Resazurin cell growth inhibition assay, Huh-7
# Type: cell-based, human
# Protocol Conditions: Homo sapiens, Huh-7, 48 h, resazurin assay, 48 h, M ± SEM of three independent experiments; read-out: Cytotoxic activity IC50, Huh-7 cell line
Observation Type: IC50 (µg/mL)
Note: unit µg/mL is implicit; provide only the numeric part.

INSERT INTO results (compound, readout_number) VALUES
  ('N#Cc1c(-c2ccccc2)nc(N2N=C(c3c4ccccc4cc4ccccc34)CC2c2ccc(F)cc2)[nH]c1=O (stereo not drawn) [Compound 4a]', 16.8),
  ('N#Cc1c(-c2c[nH]c3ccccc23)nc(N2N=C(c3c4ccccc4cc4ccccc34)CC2c2ccc(F)cc2)[nH]c1=O (stereo not drawn) [Compound 4i]', 6.47),
  ('COc1cc(/C=C/C(=O)c2c3ccccc3cc3ccccc23)cc(OC)c1OC [Compound 3c]', 21.5);

--- query ---
Ask: Param item = N#Cc1c(-c2c[nH]c3ccccc23)nc(N2N=C(c3c4ccccc4cc4ccccc34)CC2c2c[nH]c3ccccc23)[nH]c1=O (stereo not drawn) [Compound 4l] ; retrieve measured IC50.
Reply: 12.4
